Source: the RNAGym collection of RNA variant scans (doi:10.1126/science.aae0568)

B1: tRNA (parent)
chain: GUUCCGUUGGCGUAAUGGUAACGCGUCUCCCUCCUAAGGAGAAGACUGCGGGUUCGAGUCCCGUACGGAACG

# Variants of: B1
# assayOverview: yeast fitness relative to wild type (ratio to wild type); higher = fitter; tRNA-Arg(CCU), competitive growth, 37 C, YPD
Fewer inactive variants are shown than the library holds.
endpointName: yeast fitness

* U35C G41C A65C | ≤ 0.5
* C5U A40C A42G | 0.558
* G9C C30U U53C | ≤ 0.5
* C31G G67U | 0.655
* G48A C66U | 0.97
* G12C A21C U26C C60A C61A | ≤ 0.5
* G41A G67U A69C | ≤ 0.5
* A14G G39A G44C C61A G63C | ≤ 0.5
* U8A C24G A43G C49U | ≤ 0.5
* A20C C30U C46A C62G A65G | 0.534
* C5A G10C C22U A43G G58C C66G | ≤ 0.5
* C5U C29U G44A | 0.868
* U35A C60G G63A | 0.503
* A15G C29A A36G G39A | ≤ 0.5
* U7G A14U U26A C61A | ≤ 0.5
* C34A G41A C62U | ≤ 0.5
* U32C A45U G52A A70U | ≤ 0.5
* A20C C24U G44A C60G | ≤ 0.5
* A14C A21U A45C A57G | ≤ 0.5
* U19C C30G | 0.645
* A43C G52A C55U C60A | ≤ 0.5
* G51A U53A | 0.534
